// data source = patent US8536195B2

# reported pIC50; entries follow
STUDY_SYSTEM: NaV1.3 (Homo sapiens, UniProt Q9NY46)
Sequence (Q9NY46 whole entry): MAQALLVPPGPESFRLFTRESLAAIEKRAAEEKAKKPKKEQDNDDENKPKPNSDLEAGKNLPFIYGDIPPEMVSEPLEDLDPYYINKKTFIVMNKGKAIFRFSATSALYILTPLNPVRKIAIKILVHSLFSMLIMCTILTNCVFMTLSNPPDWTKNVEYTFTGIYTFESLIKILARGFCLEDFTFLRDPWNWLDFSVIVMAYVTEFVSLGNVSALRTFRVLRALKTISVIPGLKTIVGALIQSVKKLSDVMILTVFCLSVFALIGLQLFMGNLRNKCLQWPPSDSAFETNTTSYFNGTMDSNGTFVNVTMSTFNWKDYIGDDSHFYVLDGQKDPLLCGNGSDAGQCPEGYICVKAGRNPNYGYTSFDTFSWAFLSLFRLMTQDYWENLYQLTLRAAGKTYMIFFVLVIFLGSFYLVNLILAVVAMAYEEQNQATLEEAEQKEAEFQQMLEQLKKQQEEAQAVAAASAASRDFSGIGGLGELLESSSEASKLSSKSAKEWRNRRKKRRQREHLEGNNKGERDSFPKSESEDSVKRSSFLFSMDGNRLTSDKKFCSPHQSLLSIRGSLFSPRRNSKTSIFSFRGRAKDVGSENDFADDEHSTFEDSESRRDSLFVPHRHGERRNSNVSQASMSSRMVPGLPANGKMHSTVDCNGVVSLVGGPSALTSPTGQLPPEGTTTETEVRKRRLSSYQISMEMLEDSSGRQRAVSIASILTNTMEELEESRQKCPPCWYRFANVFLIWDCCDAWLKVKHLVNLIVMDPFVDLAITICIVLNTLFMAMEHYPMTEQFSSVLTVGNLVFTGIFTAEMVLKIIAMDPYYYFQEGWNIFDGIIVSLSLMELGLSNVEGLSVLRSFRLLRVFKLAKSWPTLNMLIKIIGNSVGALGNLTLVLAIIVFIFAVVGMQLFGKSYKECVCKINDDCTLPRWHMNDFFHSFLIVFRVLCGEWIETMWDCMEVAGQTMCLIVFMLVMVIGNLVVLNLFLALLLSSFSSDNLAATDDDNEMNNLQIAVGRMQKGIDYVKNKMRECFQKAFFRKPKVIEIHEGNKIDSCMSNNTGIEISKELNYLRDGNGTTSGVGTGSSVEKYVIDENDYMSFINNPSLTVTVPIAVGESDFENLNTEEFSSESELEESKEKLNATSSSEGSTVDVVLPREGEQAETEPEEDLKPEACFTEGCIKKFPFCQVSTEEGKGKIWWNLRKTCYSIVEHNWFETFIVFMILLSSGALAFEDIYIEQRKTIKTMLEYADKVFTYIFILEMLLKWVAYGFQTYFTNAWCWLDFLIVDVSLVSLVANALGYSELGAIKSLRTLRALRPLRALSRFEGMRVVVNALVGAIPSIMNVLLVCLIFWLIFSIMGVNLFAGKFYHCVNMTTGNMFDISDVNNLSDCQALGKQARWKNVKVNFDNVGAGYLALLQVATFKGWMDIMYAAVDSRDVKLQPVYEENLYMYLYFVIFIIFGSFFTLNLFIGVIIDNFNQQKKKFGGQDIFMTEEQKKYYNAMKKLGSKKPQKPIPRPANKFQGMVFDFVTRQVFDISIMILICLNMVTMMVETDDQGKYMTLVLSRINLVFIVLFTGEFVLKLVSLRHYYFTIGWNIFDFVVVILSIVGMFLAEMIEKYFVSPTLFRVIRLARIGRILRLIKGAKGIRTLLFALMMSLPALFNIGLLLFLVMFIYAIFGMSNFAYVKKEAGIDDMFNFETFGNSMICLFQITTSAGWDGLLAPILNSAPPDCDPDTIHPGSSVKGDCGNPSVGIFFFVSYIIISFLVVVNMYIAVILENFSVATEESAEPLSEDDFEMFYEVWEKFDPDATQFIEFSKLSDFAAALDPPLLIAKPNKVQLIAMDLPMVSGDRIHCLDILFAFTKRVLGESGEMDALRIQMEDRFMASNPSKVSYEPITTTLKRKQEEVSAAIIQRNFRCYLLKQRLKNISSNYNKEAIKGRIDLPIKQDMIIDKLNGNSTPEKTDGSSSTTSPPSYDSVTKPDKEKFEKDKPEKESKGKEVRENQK
MEASUREMENT_NOTES: Activity against NaV 1.3 channel (VIPR optical membrane potential assay with electrical stimulation)
Type: cell-based
Parameters: expressed in transfected cells; host or cells: HEK293
Description: Compounds of the invention are useful as antagonists of voltage-gated sodium ion channels. Antagonist properties of test compounds were assessed as follows. Cells expressing the NaV of interest were placed into microtiter plates. […] The cells were stimulated with either a chemical or electrical means to evoke a NaV dependent membrane potential change from unblocked channels, which was detected and measured with trans-membrane potential-sensitive dyes. […]
pIC50: −log10 of the molar value.

Look over these answered cases.
>>> result("COc1nc(NS(=O)(=O)c2ccc3c(c2)CC(CCOc2ccc(Cl)cc2Cl)C(=O)N3)ns1 (stereo not shown)")
"4.70 to 5.30"
>>> result("O=C1Nc2ccc(S(=O)(=O)Nc3nnc(-c4ccccc4)s3)cc2CC1CCOc1ccc(Cl)cc1Cl (stereo not shown)")
"4.70 to 5.30"
>>> result("Cc1nnc(NS(=O)(=O)c2ccc3c(c2)CC(CCOc2ccc(Cl)cc2Cl)C(=O)N3)s1 (stereo not shown)")
"4.70 to 5.30"

Challenge: Input O=C1Nc2ccc(S(=O)(=O)Nc3ncccn3)cc2CC1CCOc1ccc(Cl)cc1Cl (stereo not shown) , output reported pIC50.
Response given: 4.70 to 5.30
